Target: Cdk9/cyclinT1 (Homo sapiens, UniProt P50750)
Sequence (P50750 whole entry): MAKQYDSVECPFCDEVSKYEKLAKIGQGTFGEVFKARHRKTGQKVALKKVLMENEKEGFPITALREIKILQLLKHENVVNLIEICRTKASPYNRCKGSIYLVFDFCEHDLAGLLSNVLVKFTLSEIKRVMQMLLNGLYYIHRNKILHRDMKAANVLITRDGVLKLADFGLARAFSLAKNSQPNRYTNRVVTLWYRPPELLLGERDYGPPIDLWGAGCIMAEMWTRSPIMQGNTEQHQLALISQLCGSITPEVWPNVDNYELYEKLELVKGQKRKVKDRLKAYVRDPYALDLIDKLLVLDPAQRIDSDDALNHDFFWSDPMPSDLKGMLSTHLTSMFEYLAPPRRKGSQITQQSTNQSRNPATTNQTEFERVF
Sequence (O60563 whole entry partner): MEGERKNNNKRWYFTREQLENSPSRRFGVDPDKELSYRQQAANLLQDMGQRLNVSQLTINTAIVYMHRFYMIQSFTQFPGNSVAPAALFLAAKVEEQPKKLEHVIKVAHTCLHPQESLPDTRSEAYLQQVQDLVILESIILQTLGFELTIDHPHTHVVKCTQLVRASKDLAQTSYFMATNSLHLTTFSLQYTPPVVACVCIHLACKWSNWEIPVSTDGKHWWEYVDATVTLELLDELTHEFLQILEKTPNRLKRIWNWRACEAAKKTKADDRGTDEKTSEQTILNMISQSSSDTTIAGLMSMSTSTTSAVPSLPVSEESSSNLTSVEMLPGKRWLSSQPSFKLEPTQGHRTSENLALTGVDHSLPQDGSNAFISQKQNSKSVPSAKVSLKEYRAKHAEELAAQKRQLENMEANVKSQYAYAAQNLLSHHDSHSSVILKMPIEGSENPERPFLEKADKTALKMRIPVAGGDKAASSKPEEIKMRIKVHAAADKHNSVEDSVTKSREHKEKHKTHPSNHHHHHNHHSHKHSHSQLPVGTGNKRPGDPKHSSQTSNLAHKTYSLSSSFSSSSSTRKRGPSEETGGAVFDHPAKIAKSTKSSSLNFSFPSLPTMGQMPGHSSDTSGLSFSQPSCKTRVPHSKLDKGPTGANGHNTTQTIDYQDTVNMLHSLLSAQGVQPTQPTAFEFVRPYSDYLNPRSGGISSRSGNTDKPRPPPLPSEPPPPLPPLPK
Assay: Cdk9/cyclinT1 IMAP protocol (fluorescence polarization)
Conditions: IC-50, CDK9; lower limit of assay 0.0005 micromolar
ASSAY_METRIC: IC50 (nM)

COC[C@H](C)N[C@H]1CC[C@H](Nc2cc(-c3ccc(F)c(NCC4CCOC(C)(C)C4)n3)c(Cl)cn2)CC1 (stereo partly drawn) [Compound 457] | 1.6
CC(C)(NC[C@H]1CC[C@H](Nc2cc(-c3cccc(NCC4(C#N)CCOCC4)n3)c(Cl)cn2)CC1)C(=O)O [Compound 429] | 1.3
COC[C@@H](C)N[C@H]1CC[C@H](Nc2cc(-c3cncc(OCC4(C#N)CCOCC4)n3)c(Cl)cn2)CC1 [Compound 509] | 1.1

The reported numbers originate from patent US20130303507A1.
